- assay method text: β-GPA plasma pharmacokinetics after RGX-202 BID dosing
- Type: in vivo, human
- run parameters: 2400 mg BID; human plasma, 2,400 mg BID
- Method: Method: Subjects were administered RGX-202 (a highly compressible salt form of β-GPA) in a regimen of 600 mg BID, 1,200 mg BID, 2,400 mg BID, or 3,600 mg BID, and plasma samples were taken from the subjects and tested using the protocol described below for levels of β-GPA over the course of 24 hours after administration. The analyte, β-GPA, and internal standard (IS), [13C415N3]-β-GPA, are extracted from 50.0 μL of human plasma by a protein precipitation extraction procedure. […]
measured quantity: Cmax (ng/mL)
Give bare numbers, in ng/mL.

Fill in Cmax for record N=C(N)NCCC(=O)O [β-GPA, β-Guanidinopropionic acid]
26800

----------
- assay method text: β-GPA plasma pharmacokinetics after RGX-202 BID dosing
- Assay type: in vivo, human
- run parameters: 2400 mg BID; human plasma, 2,400 mg BID; read-out: Average AUC0-24
measured quantity: AUC(0-t) (µg·h/mL)
Numbers only, in µg·h/mL.

Fill in AUC(0-t) for record N=C(N)NCCC(=O)O [β-GPA, β-Guanidinopropionic acid]
165

----------
- assay method text: β-GPA plasma pharmacokinetics after RGX-202 BID dosing
- Assay type: in vivo, human
- run parameters: human plasma, 600 mg BID; read-out: Average AUC0-24
measured quantity: AUC(0-t) (ng·h/mL)
One number for each entry, in ng·h/mL.

Fill in AUC(0-t) for record `N=C(N)NCCC(=O)O`
15700

----------
- assay method text: Solubility of β-GPA
- Type: physicochemical
- run parameters: water
measured quantity: solubility

Fill in solubility for record `N=C(N)NCCC(=O)O`
> 50 mg/mL

----------
- assay method text: β-GPA plasma pharmacokinetics after RGX-202 BID dosing
- Assay type: in vivo, human
- run parameters: human plasma, 600 mg BID
- Experimental: Method: Subjects were administered RGX-202 (a highly compressible salt form of β-GPA) in a regimen of 600 mg BID, 1,200 mg BID, 2,400 mg BID, or 3,600 mg BID, and plasma samples were taken from the subjects and tested using the protocol described below for levels of β-GPA over the course of 24 hours after administration. The analyte, β-GPA, and internal standard (IS), [13C415N3]-β-GPA, are extracted from 50.0 μL of human plasma by a protein precipitation extraction procedure. […]
measured quantity: Cmax (ng/mL)
One number for each entry, in ng/mL.

Fill in Cmax for record `N=C(N)NCCC(=O)O`
1400

----------
- assay method text: β-GPA plasma pharmacokinetics after RGX-202 BID dosing
- Format: in vivo, human
- run parameters: 1200 mg BID; human plasma, 1,200 mg BID; read-out: Average AUC0-24
measured quantity: AUC(0-t)

Fill in AUC(0-t) for record `N=C(N)NCCC(=O)O`
45200 ng·h/mL

----------
- assay method text: β-GPA plasma pharmacokinetics after RGX-202 BID dosing
- Type: in vivo, human
- run parameters: 3600 mg BID; human plasma, 3,600 mg BID
- Protocol: Method: Subjects were administered RGX-202 (a highly compressible salt form of β-GPA) in a regimen of 600 mg BID, 1,200 mg BID, 2,400 mg BID, or 3,600 mg BID, and plasma samples were taken from the subjects and tested using the protocol described below for levels of β-GPA over the course of 24 hours after administration. The analyte, β-GPA, and internal standard (IS), [13C415N3]-β-GPA, are extracted from 50.0 μL of human plasma by a protein precipitation extraction procedure. […]
measured quantity: Cmax (µg/mL)
Numbers only, in µg/mL.

Fill in Cmax for record `N=C(N)NCCC(=O)O`
47.7

----------
- assay method text: β-GPA plasma pharmacokinetics after RGX-202 BID dosing
- Assay type: in vivo, human
- run parameters: 1200 mg BID; human plasma, 1,200 mg BID
- Procedure: Method: Subjects were administered RGX-202 (a highly compressible salt form of β-GPA) in a regimen of 600 mg BID, 1,200 mg BID, 2,400 mg BID, or 3,600 mg BID, and plasma samples were taken from the subjects and tested using the protocol described below for levels of β-GPA over the course of 24 hours after administration. The analyte, β-GPA, and internal standard (IS), [13C415N3]-β-GPA, are extracted from 50.0 μL of human plasma by a protein precipitation extraction procedure. […]
measured quantity: Cmax (ng/mL)
One number for each entry, in ng/mL.

Fill in Cmax for record `N=C(N)NCCC(=O)O`
4790
